Target: Sam68 C-terminal region (UniProt Q07666 267-368)
Sequence (Q07666 267-368): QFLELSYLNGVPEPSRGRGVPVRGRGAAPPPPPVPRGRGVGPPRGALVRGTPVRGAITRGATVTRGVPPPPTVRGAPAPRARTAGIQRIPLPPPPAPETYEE
Test: NMR titration; second estimate (probably Arg side chains); NMR: HSQC at 4 C (NMR buffer not given in material; purification in 50 mM sodium phosphate, 150 mM NaCl, pH 7.6 N-term / pH 7.0 C-term). Pull-down: 20 mM HEPES
Conditions: protein: recombinant; tags: GST removed by PreScission
pKd: −log10 of the molar value.

[
  {
    "Binder": "CUGGGUGACACACUAGCUAUAGCAUUAAAAGACCGAGCAAGU (ssRNA) [G8.5 RNA]",
    "pKd": 4.17
  }
]
